Give solubility in G1/S (log2) for every item shown.
# Tested on: HeLa Kyoto;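 note: HeLa Kyoto cells arrested at G1/S by double thymidine block, proteins quantified by TMT10plex mass spectrometry in mild NP-40 versus SDS extracts, three biological replicates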
# Measurement Description: solubility in G1/S (NP-40 vs SDS abundance) (log2 ratio); higher = more soluble
# Test Settings: cell cycle stage: G1/S
Simply state the number, no unit and no words.

MADRDSGSEQGGAALGSGGSLGHPGSGSGSGGGGGGGGGGGGSGGGGGGAPGGLQHETQELASKRVDIQNKRFYLDVKQNAKGRFLKIAEVGAGGNKSRLTLSMSVAVEFRDYLGDFIEHYAQLGPSQPPDLAQAQDEPRRALKSEFLVRENRKYYMDLKENQRGRFLRIRQTVNRGPGLGSTQGQTIALPAQGLIEFRDALAKLIDDYGVEEEPAELPEGTSLTVDNKRFFFDVGSNKYGVFMRVSEVKPTYRNSITVPYKVWAKFGHTFCKYSEEMKKIQEKQREKRAACEQLHQQQQQQQEETAAATLLLQGEEEGEED [PURA] has a reported solubility in G1/S (log2) of 0.415

MASSEQAEQPSQPSSTPGSENVLPREPLIATAVKFLQNSRVRQSPLATRRAFLKKKGLTDEEIDMAFQQSGTAADEPSSLGPATQVVPVQPPHLISQPYSPAGSRWRDYGALAIIMAGIAFGFHQLYKKYLLPLILGGREDRKQLERMEAGLSELSGSVAQTVTQLQTTLASVQELLIQQQQKIQELAHELAAAKATTSTNWILESQNINELKSEINSLKGLLLNRRQFPPSPSAPKIPSWQIPVKSPSPSSPAAVNHHSSSDISPVSNESTSSSPGKEGHSPEGSTVTYHLLGPQEEGEGVVDVKGQVRMEVQGEEEKREDKEDEEDEEDDDVSHVDEEDCLGVQREDRRGGDGQINEQVEKLRRPEGASNESERD [PEX14] has a reported solubility in G1/S (log2) of 0.332
